Where do the numbers come from? From patent US20240270826A1.

- system: SARS-CoV spike (S) (SARS-CoV, UniProt P59594 14-1195)
- assay: SPR, VHH over immobilised S
metric name: binding result

NRCoV2-10 VHH (VHH) VHH: QLQLQESGGGLVQPGGSLTLSCAASGNTFSRSNMHWYRQAPGAQREWVAAISSRGISTYAYSAKGRFTISRDNAKNTVSLQMNSLKPEDTAVYYCYAADDLGDYWGQGTQVTVSS; no binding
NRCoV2-S2A4 VHH (VHH) VHH: QVQLVQSGGGLVQAGGSLRLSCAVSGSPFRSNVMEWYRQAPGKQRELVASISTGGSRTYTDSVKGRFTISRDNAKNEAFLQMNSLKPEDTAVYYCHAAARDSHGIYLLDTWGQGTQVTVSS; no binding
